Tested on: 26S proteasome (yeast, GFP-tagged, ATP-dependent disassembly)
METHOD_SUMMARY: inhibitors of ATP-driven 26S proteasome dissociation, primary screen, biochemical, bead-based flow cytometry, GFP-tagged proteasome (AID 751);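 also: plate controls were ATP control with full disassembly for no effect and ATP-gamma-S intact proteasomes for full effect; higher percent means more bead fluorescence retained so stronger block of disassembly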
REPORTED_CONDITIONS: anti-FLAG beads, stronger effect = higher value, concentration not given here
Screen size: about 24,000 compounds; about 40 (0.2%) were called active. Many of the other results were omitted from the sample, so actives are more common in it than they were.
As shown below, each of these molecules has a reported inhibition of disassembly value.
MEASURED_PROPERTY: inhibition of disassembly (%)

# MOLECULE, READING
data = [
    ("CCCn1c(C(O)c2ccc(OCC)cc2)nc2ccccc21 (stereo not drawn)", 0.49),
    ("Cc1cc(=O)n2nc(N3CCCC(C(=O)NCCC4=CCCCC4)C3)sc2n1 (stereo not drawn)", -1.75),
    ("CN(C)S(=O)(=O)c1cccc(C(=O)Nc2cccnc2)c1", 0.3),
    ("O=C1c2cccnc2C(=O)N1Cc1cccs1", -1.73),
    ("COc1ccc(CCNC(=O)c2ccc3c(c2)NC(=O)C(N2CCOCC2)S3)cc1OC (stereo not drawn)", 7.35),
    ("COC(=O)c1oc2ccc(Br)cc2c1NC(C)=O", 0.425),
    ("O=C(CCCCn1c(=O)[nH]c2ccccc2c1=O)NCc1ccc2c(c1)OCO2", 1.45),
    ("CCOC(=O)Cn1c(=O)oc2cc(S(=O)(=O)NCC3CCCO3)ccc21 (stereo not drawn)", -1.43),
    ("CC(=O)Nc1cc2ccc(OC(C)=O)cc2oc1=O", 0.02),
    ("Cn1c(C(=O)NCCN2CCc3ccccc3C2)cc2c(=O)[nH]c3ccccc3c21", -0.79),
    ("COc1ccc(C(=O)N(CCN2CCOCC2)CC(=O)NC2CCCC2)cc1OC", 1),
    ("Cc1cc(C(=O)NCCCc2ccccc2)no1", 0.81),
    ("CCSc1nc2c(c(=O)[nH]1)C(c1cccnc1)C(C(=O)OC(C)C)=C(C)N2 (stereo not drawn)", 0.035),
    ("Cc1c(C(=O)N2CC(C)OC(C)C2)sc2nc(-c3ccccc3)cn12 (stereo not drawn)", 0.65),
    ("CCc1nnc(NC(=O)CCC(=O)O)s1", -0.71),
    ("CC(C)CNS(=O)(=O)c1ccc(OCC(=O)Nc2ccc3c(c2)OCO3)c(Cl)c1", 0.65),
    ("COc1ccc(OC)c(N=Cc2c(O)[nH]c3ccccc23)c1", 25.8),
    ("COc1ccccc1N1CCN(c2nc3ccccc3n3nnnc23)CC1", 22.2),
    ("CC(=O)NCC(=O)N(C)C(C(=O)Nc1ccc2c(c1)OCCO2)c1ccccc1 (stereo not drawn)", 2.08),
    ("COc1ccc(CCNC(=O)c2cc(-c3ccc4c(c3)OCO4)on2)cc1OC", -0.34),
    ("COc1ccccc1-c1nc(C(F)(F)F)c(OC)o1", -0.84),
    ("COc1cccc(NC(=O)Cn2cnc3sc(C)c(S(=O)(=O)N4CCN(C)CC4)c3c2=O)c1", -0.73),
    ("Cc1nn(-c2ccccc2)c2[nH]c(C(F)(F)F)cc(=O)c12", 0.28),
]

The values you see were collected from PubChem BioAssay AID751.
